test system: Breast cancer cell lines; assay: NCI anticancer screen, SRB assay, panel summary; assay type: cell-based, human; conditions: Homo sapiens; five breast cancer cell lines; exposure at least 48 hrs; read-out: GI50, range over the panel
readoutLabel: GI50

So what's the measured GI50 for this one? COc1ccc(-c2cn(-c3cccc(C(=O)/C=C/c4ccc(O)c(OC)c4)c3)c(=O)[nH]2)cc1 [3b]
3.18 to 5.25 µM

So what's the measured GI50 for this one? COc1cc(/C=C/C(=O)c2cccc(-n3cc(-c4ccccc4)[nH]c3=O)c2)cc(OC)c1OC [5a]
0.31 to 3.41 µM

So what's the measured GI50 for this one? COc1cc(/C=C/C(=O)c2cccc(-n3cc(-c4ccc(Cl)cc4)[nH]c3=O)c2)ccc1O [3f]
2.3 to 4.67 µM

So what's the measured GI50 for this one? O=C(/C=C/c1cccc(O)c1)c1cccc(-n2cc(-c3ccccc3)[nH]c2=O)c1 [4a]
2.47 to 9.32 µM

So what's the measured GI50 for this one? COc1cc(/C=C/C(=O)c2cccc(-n3cc(-c4ccccc4)[nH]c3=O)c2)ccc1O [3a]
1.55 to 4.16 µM

So what's the measured GI50 for this one? COc1cc(/C=C/C(=O)c2cccc(-n3cc(-c4cc(OC)c(OC)c(OC)c4)[nH]c3=O)c2)cc(OC)c1OC [5d]
0.47 to 4.19 µM

So what's the measured GI50 for this one? O=C(/C=C/c1cccc(O)c1)c1cccc(-n2cc(-c3ccc(Cl)cc3)[nH]c2=O)c1 [4f]
1.29 to 4 µM

So what's the measured GI50 for this one? O=C(/C=C/c1cccc(O)c1)c1cccc(-n2cc(-c3ccc4ccccc4c3)[nH]c2=O)c1 [12b]
0.47 to 2.01 µM

* * *

system: MDA-MB-231/ATCC (breast); experiment: NCI anticancer screen, SRB assay, 48 h; format: cell-based, human; details: Homo sapiens, 48 h exposure, SRB, read-out: GI50
GI50 vs 3 µM: less than gives condition met; not less than gives condition not met.

Find out if reported GI50 for O=C(/C=C/c1cccc(O)c1)c1cccc(-n2cc(-c3ccccc3)[nH]c2=O)c1 [4a] is less than 3 µM
condition not met

Find out if reported GI50 for COc1cc(/C=C/C(=O)c2cccc(-n3cc(-c4cc(OC)c(OC)c(OC)c4)[nH]c3=O)c2)cc(OC)c1OC [5d] is less than 3 µM
condition not met

Find out if reported GI50 for O=C(/C=C/c1cccc(O)c1)c1cccc(-n2cc(-c3ccc4ccccc4c3)[nH]c2=O)c1 [12b] is less than 3 µM
condition met

Find out if reported GI50 for COc1cc(/C=C/C(=O)c2cccc(-n3cc(-c4ccc(Cl)cc4)[nH]c3=O)c2)ccc1O [3f] is less than 3 µM
condition not met

Find out if reported GI50 for COc1ccc(-c2cn(-c3cccc(C(=O)/C=C/c4ccc(O)c(OC)c4)c3)c(=O)[nH]2)cc1 [3b] is less than 3 µM
condition not met

Find out if reported GI50 for COc1cc(/C=C/C(=O)c2cccc(-n3cc(-c4ccccc4)[nH]c3=O)c2)ccc1O [3a] is less than 3 µM
condition not met

Find out if reported GI50 for O=C(/C=C/c1cccc(O)c1)c1cccc(-n2cc(-c3ccc(Cl)cc3)[nH]c2=O)c1 [4f] is less than 3 µM
condition not met

Find out if reported GI50 for COc1cc(/C=C/C(=O)c2cccc(-n3cc(-c4ccccc4)[nH]c3=O)c2)cc(OC)c1OC [5a] is less than 3 µM
condition met

* * *

Answer each item with its documented GI50.
test system: NCI/ADR-RES (ovarian); experiment: NCI anticancer screen, SRB assay, 48 h; type: cell-based, human; conditions: Homo sapiens, NCI/ADR-RES; read-out: pGI50 (-log of molar concentration causing 50% inhibition of net cell growth) (converted)
Unit µM implied. Number only.

So what's the measured GI50 for this one? O=C(/C=C/c1cccc(O)c1)c1cccc(-n2cc(-c3ccc4ccccc4c3)[nH]c2=O)c1 [12b]
1.55

So what's the measured GI50 for this one? COc1ccc(-c2cn(-c3cccc(C(=O)/C=C/c4ccc(O)c(OC)c4)c3)c(=O)[nH]2)cc1 [3b]
2.57

So what's the measured GI50 for this one? COc1cc(/C=C/C(=O)c2cccc(-n3cc(-c4ccccc4)[nH]c3=O)c2)cc(OC)c1OC [5a]
1.1

So what's the measured GI50 for this one? COc1cc(/C=C/C(=O)c2cccc(-n3cc(-c4ccccc4)[nH]c3=O)c2)ccc1O [3a]
2.95

So what's the measured GI50 for this one? O=C(/C=C/c1cccc(O)c1)c1cccc(-n2cc(-c3ccccc3)[nH]c2=O)c1 [4a]
3.72

So what's the measured GI50 for this one? COc1cc(/C=C/C(=O)c2cccc(-n3cc(-c4cc(OC)c(OC)c(OC)c4)[nH]c3=O)c2)cc(OC)c1OC [5d]
2.09

So what's the measured GI50 for this one? COc1cc(/C=C/C(=O)c2cccc(-n3cc(-c4ccc(Cl)cc4)[nH]c3=O)c2)ccc1O [3f]
2.29

So what's the measured GI50 for this one? O=C(/C=C/c1cccc(O)c1)c1cccc(-n2cc(-c3ccc(Cl)cc3)[nH]c2=O)c1 [4f]
2.19

* * *

Answer each item with its documented GI50.
system: U251 (CNS); test: NCI anticancer screen, SRB assay, 48 h; assay type: cell-based, human; conditions: Homo sapiens, U-251, read-out: pGI50 (-log of molar concentration causing 50% inhibition of net cell growth) (converted)
Unit nM implied. Number only.

So what's the measured GI50 for this one? O=C(/C=C/c1cccc(O)c1)c1cccc(-n2cc(-c3ccc(Cl)cc3)[nH]c2=O)c1
575

So what's the measured GI50 for this one? COc1cc(/C=C/C(=O)c2cccc(-n3cc(-c4ccccc4)[nH]c3=O)c2)cc(OC)c1OC
631

So what's the measured GI50 for this one? COc1cc(/C=C/C(=O)c2cccc(-n3cc(-c4cc(OC)c(OC)c(OC)c4)[nH]c3=O)c2)cc(OC)c1OC
1230

So what's the measured GI50 for this one? COc1ccc(-c2cn(-c3cccc(C(=O)/C=C/c4ccc(O)c(OC)c4)c3)c(=O)[nH]2)cc1
3470

So what's the measured GI50 for this one? O=C(/C=C/c1cccc(O)c1)c1cccc(-n2cc(-c3ccccc3)[nH]c2=O)c1
1620

So what's the measured GI50 for this one? COc1cc(/C=C/C(=O)c2cccc(-n3cc(-c4ccccc4)[nH]c3=O)c2)ccc1O
2090

So what's the measured GI50 for this one? O=C(/C=C/c1cccc(O)c1)c1cccc(-n2cc(-c3ccc4ccccc4c3)[nH]c2=O)c1 [12b]
1100

So what's the measured GI50 for this one? COc1cc(/C=C/C(=O)c2cccc(-n3cc(-c4ccc(Cl)cc4)[nH]c3=O)c2)ccc1O
2240

* * *

Answer each item with its documented GI50.
system: RXF 393 (renal); assay: NCI anticancer screen, SRB assay, 48 h; format: cell-based, human; details: Homo sapiens; RXF-393; read-out: pGI50 (-log of molar concentration causing 50% inhibition of net cell growth) (converted)
Unit nM implied. Number only.

So what's the measured GI50 for this one? COc1cc(/C=C/C(=O)c2cccc(-n3cc(-c4ccccc4)[nH]c3=O)c2)cc(OC)c1OC
1700

So what's the measured GI50 for this one? COc1cc(/C=C/C(=O)c2cccc(-n3cc(-c4ccc(Cl)cc4)[nH]c3=O)c2)ccc1O
6460

So what's the measured GI50 for this one? O=C(/C=C/c1cccc(O)c1)c1cccc(-n2cc(-c3ccc(Cl)cc3)[nH]c2=O)c1
1510

So what's the measured GI50 for this one? O=C(/C=C/c1cccc(O)c1)c1cccc(-n2cc(-c3ccccc3)[nH]c2=O)c1
1910

So what's the measured GI50 for this one? O=C(/C=C/c1cccc(O)c1)c1cccc(-n2cc(-c3ccc4ccccc4c3)[nH]c2=O)c1 [12b]
1410

So what's the measured GI50 for this one? COc1cc(/C=C/C(=O)c2cccc(-n3cc(-c4cc(OC)c(OC)c(OC)c4)[nH]c3=O)c2)cc(OC)c1OC
1620

So what's the measured GI50 for this one? COc1cc(/C=C/C(=O)c2cccc(-n3cc(-c4ccccc4)[nH]c3=O)c2)ccc1O
2290

So what's the measured GI50 for this one? COc1ccc(-c2cn(-c3cccc(C(=O)/C=C/c4ccc(O)c(OC)c4)c3)c(=O)[nH]2)cc1
5890

* * *

system: LOX IMVI (melanoma); experiment: NCI anticancer screen, SRB assay, 48 h; format: cell-based, human; conditions: Homo sapiens, read-out: pGI50 (-log of molar concentration causing 50% inhibition of net cell growth) (converted)
readoutLabel: GI50 (nM)
Unit nM implied. Number only.

So what's the measured GI50 for this one? COc1cc(/C=C/C(=O)c2cccc(-n3cc(-c4ccccc4)[nH]c3=O)c2)cc(OC)c1OC
479

So what's the measured GI50 for this one? O=C(/C=C/c1cccc(O)c1)c1cccc(-n2cc(-c3ccc4ccccc4c3)[nH]c2=O)c1 [12b]
851

So what's the measured GI50 for this one? COc1ccc(-c2cn(-c3cccc(C(=O)/C=C/c4ccc(O)c(OC)c4)c3)c(=O)[nH]2)cc1
2450

So what's the measured GI50 for this one? O=C(/C=C/c1cccc(O)c1)c1cccc(-n2cc(-c3ccc(Cl)cc3)[nH]c2=O)c1
1580
